Target: T1, Mtb beta-clamp, OregonGreen488-labeled (Mycobacterium tuberculosis, UniProt P9WNU1 1-402)
T1 sequence: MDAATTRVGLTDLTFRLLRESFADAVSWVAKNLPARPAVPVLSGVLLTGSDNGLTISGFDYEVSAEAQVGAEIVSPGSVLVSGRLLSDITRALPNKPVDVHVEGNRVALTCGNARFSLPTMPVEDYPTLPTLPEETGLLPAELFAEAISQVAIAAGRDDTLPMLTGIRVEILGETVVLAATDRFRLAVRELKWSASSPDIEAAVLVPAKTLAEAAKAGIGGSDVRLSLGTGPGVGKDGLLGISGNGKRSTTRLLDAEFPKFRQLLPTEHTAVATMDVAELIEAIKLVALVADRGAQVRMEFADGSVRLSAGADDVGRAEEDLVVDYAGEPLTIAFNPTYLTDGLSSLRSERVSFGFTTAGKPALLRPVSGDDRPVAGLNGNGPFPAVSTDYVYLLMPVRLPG
Assay: fluorescence intensity titration (OregonGreen-labeled protein); apparent Kd; abstract gives 300 nM; no Mg2+; 20 mM Tris-Cl pH 7.5, 1 mM DTT, 0.2 mM EDTA, 40 mM NaCl, 22 C, 200 or 500 nM labeled clamp; ex 490 nm, em 517 nm
Settings: protein: recombinant; tags: C-terminal 6xHis; OregonGreen488 maleimide; chain copies: 2; label: none in fluorescence assay; 32P in EMSA
EXPERIMENTAL_ENDPOINT: Kd (nM)
Express it in nM; write the number only.

Lookup: What value of Kd has been reported for the following binder? 18/28-mer primed template (mixed) DNA 1: TTTTTTTTTTCCCTTGCTATACGATGGG DNA 2: CCCATCGTATAGCAAGGG
Found: 326

Sourced from paper PMC3335792
